System: MS2 coat protein
Run description: apparent KD of MS2 coat protein; designed switch direction (-1 OFF switch, 1 ON switch): -1; higher = weaker reporter binding
Setup conditions: input ligand: FMN 200 uM
Listing: apparent KD of MS2 coat protein of selected sequences
Respond numerically; units are nM and should not be typed.

Some sequences with known apparent KD of MS2 coat protein results, for comparison:
Ordered residues: CGGCGGGCAGGAUAUGGUAAUAAUUACAUGAGGAUCACCCAUGUAGAUAUAUGGGAAUAACCAGAAGGGCUUGUUG [-20.5, -20.3 kcal, A 32%] (Eterna round: R97, puzzle: Exclusion 5)
Readout type: apparent KD of MS2 coat protein
Measured: 19.7

Ordered residues: CUCAUGUUGGAGGAUAUAUUUGUCAACCGACCGAUAGAAGGCCACACAUGAGGAUCACCCAUGUCAUCCGGAGA [Eternabot (Original) Solution 50] (Eterna round: R97, puzzle: Exclusion 6)
Readout type: apparent KD of MS2 coat protein
Measured: 28.3

Ordered residues: AGUACUAUCACGAAAGUGAUAGUACAAAAAGCAAGUGAAACAUGAGGAUCACCCAUGUCCUCAUUUGCUCGUCUUAU [JL turnoff v2 99] (Eterna round: R96, puzzle: Sensor v2, turn-off variant 2)
Readout type: apparent KD of MS2 coat protein
Measured: 12.2

Ordered residues: CCGAAGCUAGGAUAUACAUGAGGAUCACCCAUGUAAUCUCAUUUACGGGUCGGGCGCAGUAGAAGGAGCAAAGU [EX3 B.17] (Eterna round: R97, puzzle: Exclusion 3)
Readout type: apparent KD of MS2 coat protein
Measured: 17.5

Now for the sequence whose apparent KD of MS2 coat protein we want.
Give its apparent KD of MS2 coat protein value. Item: GCAACGAGAGGAUAUGCUUAACGACCGGCGGAAGCGGAUCCACAUGAGGAUCACCCAUGUAGAAGGCUCGGACC [Eternabot (Original) Solution 24] (Eterna round: R97, puzzle: Exclusion 2) 35.8

----------
Listing: apparent KD of MS2 coat protein of selected sequences
Test system: MS2 coat protein
Run description: apparent KD of MS2 coat protein; designed switch direction (-1 OFF switch, 1 ON switch): -1; higher = weaker reporter binding
Setup conditions: Eterna round: R95; input ligand: microRNA oligo, concentration not stated
Respond numerically; units are nM and should not be typed.

Some sequences with known apparent KD of MS2 coat protein results, for comparison:
Ordered residues: AAGUACCGUCACGAUAGUGAUGGUACAACAAGUAGUGAAACAUGAGGAUCACCCAUGUCCUCAGUUGCUCGUCUUAU [Sensor 3 - 86] (puzzle: Sensor v3, turn-off variant 2)
apparent KD of MS2 coat protein, nM: 269
//
Ordered residues: UUCCUACAUGAGGAUCACCCAUGUGAGGAUAUGCAUCGUAUUAUUCUCGUAUGUAGUAGCAGAAGGCGCAUUGG [Starry Exclusion 1.1] (puzzle: Exclusion 1)
apparent KD of MS2 coat protein, nM: 36.9

Give its apparent KD of MS2 coat protein value. Item: AGAUCACAUGAGGAUCACCCAUGUCAGGAUAUGAUACUAUGUACUUCGGUACAUAGUAUCAGAAGGGAUAUGAA [Ex1-3: 67] (puzzle: Exclusion 1) 109

Give its apparent KD of MS2 coat protein value. Item: GUCCUCAUGACGCCUAAACACAUGAGGAUCACCCAUGUACAGGCUUUUUGUCGUCUUAUAAUAAAACCGAGGAUGCG [Xelaanen] (puzzle: Sensor v3, turn-off variant 1) 319

Give its apparent KD of MS2 coat protein value. Item: AAGAGUGCAGGAUAUACUUGUUAGGACGGUUGGAUGAAUGGACAUGAGGAUCACCCAUGUAGAAGGGCAGAGAG [JR_Exclu2_Sub051] (puzzle: Exclusion 2) 30.2
